Taken from patent US20200155602A1.

Exercise: state measured peptide exchange yield for each of the binders provided.
# system_under_test: T1, HLA-A*02:01 (human)
# T1 construct: Peptide-receptive HLA-A*02:01 monomer obtained by UV cleavage of a UV-sensitive ligand; captured on streptavidin plates; also called peptide-receptive MHC molecules; MHC class I
# procedure_text: UV-ligand exchange, anti-b2m ELISA; grade of peptide exchange yield (>10% = +; >20% = ++; >50 = +++; >75% = ++++)

See these solved cases before continuing.
>  <binder>
ALMAGCIQEA

>  <peptide exchange yield>
> 75%

$$$$
>  <binder>
QLIEKITQV

>  <peptide exchange yield>
50 to 75%

$$$$
>  <binder>
ILFDEVLTFA

>  <peptide exchange yield>
> 75%

$$$$
>  <binder>
SLGNFKDDLL

>  <peptide exchange yield>
50 to 75%

$$$$

Give peptide exchange yield for all binders that follow.
1. FLHEPFSSV
2. TLASLGYAVV
3. ILLEDVFQL
4. AIYEGVGWNV
5. ILDINDNPPV
6. HLATVKLLV
7. SLPESGLLSV
8. TLWPATPPKA

1: > 75%; 2: 50 to 75%; 3: > 75%; 4: > 75%; 5: 50 to 75%; 6: > 75%; 7: 50 to 75%; 8: 50 to 75%
